# Target Or Test System: protein-protein interaction between SOS1 and KRAS G12C (Homo sapiens, UniProt Q07889)
# Construct: purchased Cisbio 64KRASG12PEG
# Protocol Summary: KRAS::SOS1 HTRF binding analysis (KRAS G12C/SOS1 binding kit)
# Condition Notes: compound at 0.1 uM
Experimental Readout: inhibition at 0.1 µM

# count of solved cases: 2
# molecule C[C@@H](Nc1cnnc2ccc(C3=CCN(C)CC3)cc12)c1cccc(C#N)c1 [Example 53] ; its inhibition at 0.1 µM = 0 to 40%

# molecule C[C@@H](Nc1cnnc2ccc(N3CC4CC(C3)O4)cc12)c1cc(O)cc(C(F)F)c1 [Example 55] ; its inhibition at 0.1 µM = 0 to 40%

Could you now look at the following molecule, please?
# molecule CO[C@@H]1CCCN(c2ccc3nncc(N[C@H](C)c4cccc(C(F)F)c4F)c3c2)C1 [Example 23] ; its inhibition at 0.1 µM = 0 to 40%

---

# Target Or Test System: protein-protein interaction between SOS1 and KRAS G12C (Homo sapiens)
# Construct: purchased Cisbio 64KRASG12PEG
# Protocol Summary: KRAS::SOS1 HTRF binding analysis (KRAS G12C/SOS1 binding kit)
# Condition Notes: compound at 0.1 uM
Listing of recorded inhibition at 0.1 µM by entry.

# compound C[C@@H](Nc1cnnc2ccc(N3CC[C@@H](O)C3)cc12)c1cccc(C(F)F)c1F [Example 27] ; its inhibition at 0.1 µM = 40 to 70%

# compound C[C@@H](Nc1cnnc2ccc(N[C@H]3CCNC3)cc12)c1cccc(C(F)F)c1F [Example 40] ; its inhibition at 0.1 µM = 40 to 70%

# compound C[C@@H](Nc1cnnc2ccc(N3CC4CCC(C3)O4)cc12)c1cccc(C(F)F)c1F [Example 16] ; its inhibition at 0.1 µM = 0 to 40%

# compound C[C@H]1CN(c2ccc3nncc(N[C@H](C)c4cccc(C(F)F)c4F)c3c2)CCO1 [Example 59] ; its inhibition at 0.1 µM = 0 to 40%

# compound C[C@@H](Nc1cnnc2ccc(C3=CCNCC3)cc12)c1cccc(C(F)F)c1F [Example 2] ; its inhibition at 0.1 µM = 40 to 70%

Next:
# compound C[C@@H](Nc1cnnc2ccc(N[C@@H]3CCNC3)cc12)c1cccc(C#N)c1 [Example 54] ; its inhibition at 0.1 µM = 0 to 40%

# compound C[C@@H](Nc1cnnc2ccc(N3CC4(COC4)C3)cc12)c1cccc(C(F)F)c1F [Example 11] ; its inhibition at 0.1 µM = 0 to 40%

# compound C[C@@H]1CN(c2ccc3nncc(N[C@H](C)c4cccc(C(F)F)c4F)c3c2)CCO1 [Example 57] ; its inhibition at 0.1 µM = 0 to 40%

---

# Target Or Test System: protein-protein interaction between SOS1 and KRAS G12C (Homo sapiens)
# Construct: purchased Cisbio 64KRASG12PEG
# Sequence (Q07889 1-1333): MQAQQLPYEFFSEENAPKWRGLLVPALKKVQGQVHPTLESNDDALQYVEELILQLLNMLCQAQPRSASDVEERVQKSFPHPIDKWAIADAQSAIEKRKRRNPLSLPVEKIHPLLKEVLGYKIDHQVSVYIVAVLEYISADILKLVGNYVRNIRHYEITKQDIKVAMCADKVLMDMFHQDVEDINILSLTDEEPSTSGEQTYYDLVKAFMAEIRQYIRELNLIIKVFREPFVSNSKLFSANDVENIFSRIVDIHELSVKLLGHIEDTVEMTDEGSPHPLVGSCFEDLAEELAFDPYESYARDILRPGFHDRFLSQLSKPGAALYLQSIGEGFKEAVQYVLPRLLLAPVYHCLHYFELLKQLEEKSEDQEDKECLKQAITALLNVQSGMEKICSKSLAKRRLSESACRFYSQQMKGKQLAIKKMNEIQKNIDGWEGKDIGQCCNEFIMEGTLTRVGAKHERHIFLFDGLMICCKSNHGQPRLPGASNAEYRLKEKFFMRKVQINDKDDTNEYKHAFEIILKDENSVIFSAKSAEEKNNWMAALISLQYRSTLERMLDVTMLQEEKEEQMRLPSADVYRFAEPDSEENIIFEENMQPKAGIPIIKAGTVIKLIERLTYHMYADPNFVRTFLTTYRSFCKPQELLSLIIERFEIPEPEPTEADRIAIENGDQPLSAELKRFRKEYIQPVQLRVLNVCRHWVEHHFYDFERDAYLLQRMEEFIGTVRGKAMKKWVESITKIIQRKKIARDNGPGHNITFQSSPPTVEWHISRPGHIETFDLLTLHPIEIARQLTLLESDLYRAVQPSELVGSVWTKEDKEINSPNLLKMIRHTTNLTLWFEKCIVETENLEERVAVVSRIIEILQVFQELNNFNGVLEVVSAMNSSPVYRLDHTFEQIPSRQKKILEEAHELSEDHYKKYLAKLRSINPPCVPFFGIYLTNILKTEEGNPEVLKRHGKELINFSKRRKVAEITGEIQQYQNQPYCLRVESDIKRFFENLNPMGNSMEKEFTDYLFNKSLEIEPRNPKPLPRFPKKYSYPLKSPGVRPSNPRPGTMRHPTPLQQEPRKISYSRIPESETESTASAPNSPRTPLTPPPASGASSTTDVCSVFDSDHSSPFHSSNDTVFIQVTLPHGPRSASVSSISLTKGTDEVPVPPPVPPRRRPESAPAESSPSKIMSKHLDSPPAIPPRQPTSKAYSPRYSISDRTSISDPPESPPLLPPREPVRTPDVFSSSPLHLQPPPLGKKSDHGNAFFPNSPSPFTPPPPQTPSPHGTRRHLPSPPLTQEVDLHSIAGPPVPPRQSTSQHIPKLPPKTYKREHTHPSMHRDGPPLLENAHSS
# Protocol Summary: KRAS::SOS1 HTRF binding analysis (KRAS G12C/SOS1 binding kit)
# Condition Notes: compound at 0.1 uM
# Description: 1-1. KRAS::SOS1 HTRF binding analysis […] Specifically, a KRAS G12C/SOS1 binding kit (64KRASG12PEG, Cisbio, France) was purchased and used. […] The plates were sealed and allowed to react at room temperature for one hour and 40 minutes, and then 665 nm wavelength and 620 nm wavelength were measured using a HTRF® compatible reader (Synergy H4, BioTeK, USA), and the ratio of receptor and donor emission signals for each well was calculated as 665 nm/620 nm×10^4. […]
Listing of recorded inhibition at 0.1 µM by entry.

# compound COC1CN(c2ccc3nncc(N[C@H](C)c4cccc(C(F)F)c4F)c3c2)C1 ; its inhibition at 0.1 µM = 0 to 40%

# compound C[C@@H](Nc1cnnc2ccc(N[C@H]3CCOC3)cc12)c1cccc(C(F)F)c1F ; its inhibition at 0.1 µM = 0 to 40%

# compound C[C@@H](Nc1cnnc2ccc(N3CCC(C)(O)CC3)cc12)c1cccc(C(F)F)c1F ; its inhibition at 0.1 µM = 40 to 70%

# compound C[C@@H](Nc1cnnc2ccc(C3=CCN(C)CC3)cc12)c1cccc(C(F)F)c1F ; its inhibition at 0.1 µM = 70 to 100%

# compound Cc1c(C#N)cccc1[C@@H](C)Nc1cnnc2ccc(C3=CCN(C)CC3)cc12 ; its inhibition at 0.1 µM = 0 to 40%

# compound C[C@@H](Nc1cnnc2ccc(N3CCOCC3)cc12)c1cccc(C(F)F)c1F ; its inhibition at 0.1 µM = 0 to 40%
